target: T1, recombinant mouse αvβ1 integrin extracellular domains (mouse, UniProt P43406 1-988; P09055 1-728, Biotinylated on the Avitag (tag not in the letters); interchain disulfide between the coiled-coils (not in the letters).); assay: ForteBio Octet Red (BLI)
T1 construct: Soluble heterodimer co-expressed in Expi293 cells; also called mαvβ1
T1 sequence (P43406 31-988 limits assumed, form in doubt, chain 1 of 2): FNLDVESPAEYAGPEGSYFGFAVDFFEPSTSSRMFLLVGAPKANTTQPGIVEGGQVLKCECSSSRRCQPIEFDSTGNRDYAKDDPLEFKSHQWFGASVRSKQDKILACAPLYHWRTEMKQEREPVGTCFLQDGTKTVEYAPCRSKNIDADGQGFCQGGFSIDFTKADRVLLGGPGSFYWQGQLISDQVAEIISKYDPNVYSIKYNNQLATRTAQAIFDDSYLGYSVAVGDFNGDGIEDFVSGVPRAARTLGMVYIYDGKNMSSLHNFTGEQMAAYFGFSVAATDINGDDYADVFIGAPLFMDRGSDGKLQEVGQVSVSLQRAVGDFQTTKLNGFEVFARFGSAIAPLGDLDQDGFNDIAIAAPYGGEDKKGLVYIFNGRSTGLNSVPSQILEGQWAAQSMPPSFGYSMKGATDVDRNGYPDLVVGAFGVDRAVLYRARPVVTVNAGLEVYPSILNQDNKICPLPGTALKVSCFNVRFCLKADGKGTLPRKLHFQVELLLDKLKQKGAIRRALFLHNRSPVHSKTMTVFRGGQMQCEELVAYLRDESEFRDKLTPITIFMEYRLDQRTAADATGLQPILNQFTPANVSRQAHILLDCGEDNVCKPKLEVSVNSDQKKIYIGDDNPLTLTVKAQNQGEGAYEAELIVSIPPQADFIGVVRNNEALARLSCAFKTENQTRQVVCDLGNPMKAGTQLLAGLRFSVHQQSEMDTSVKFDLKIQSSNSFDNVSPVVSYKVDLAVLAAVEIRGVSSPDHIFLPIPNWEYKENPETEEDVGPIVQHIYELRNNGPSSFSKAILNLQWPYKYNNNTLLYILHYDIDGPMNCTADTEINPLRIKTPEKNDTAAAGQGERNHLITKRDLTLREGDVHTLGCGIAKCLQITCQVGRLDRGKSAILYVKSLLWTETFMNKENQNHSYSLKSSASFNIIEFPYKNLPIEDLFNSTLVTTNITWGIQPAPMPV
T1 sequence (P09055 21-728 limits assumed, form in doubt, chain 2 of 2): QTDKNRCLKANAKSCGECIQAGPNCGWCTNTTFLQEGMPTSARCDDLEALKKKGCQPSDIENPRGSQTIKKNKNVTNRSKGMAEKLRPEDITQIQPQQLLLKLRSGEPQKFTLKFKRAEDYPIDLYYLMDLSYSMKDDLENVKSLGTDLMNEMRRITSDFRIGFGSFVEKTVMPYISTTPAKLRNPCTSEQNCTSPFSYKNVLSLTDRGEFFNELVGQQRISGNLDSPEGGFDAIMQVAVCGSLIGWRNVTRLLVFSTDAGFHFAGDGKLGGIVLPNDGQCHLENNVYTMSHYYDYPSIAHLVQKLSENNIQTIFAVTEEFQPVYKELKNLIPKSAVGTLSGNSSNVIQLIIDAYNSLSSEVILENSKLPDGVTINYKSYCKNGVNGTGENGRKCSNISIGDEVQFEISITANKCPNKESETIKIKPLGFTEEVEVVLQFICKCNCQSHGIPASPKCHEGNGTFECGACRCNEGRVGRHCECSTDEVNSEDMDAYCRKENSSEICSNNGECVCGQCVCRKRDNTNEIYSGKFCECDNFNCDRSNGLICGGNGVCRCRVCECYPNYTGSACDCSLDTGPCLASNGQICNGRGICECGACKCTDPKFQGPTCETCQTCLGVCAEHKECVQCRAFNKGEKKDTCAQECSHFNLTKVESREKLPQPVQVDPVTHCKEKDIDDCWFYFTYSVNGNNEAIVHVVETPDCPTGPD
reported_metric: pKd
In plain terms, pKd is the concentration in mol/L turned into minus its base-10 logarithm.

Challenge: Given Ab-32 (antibody, V domains shown) VH: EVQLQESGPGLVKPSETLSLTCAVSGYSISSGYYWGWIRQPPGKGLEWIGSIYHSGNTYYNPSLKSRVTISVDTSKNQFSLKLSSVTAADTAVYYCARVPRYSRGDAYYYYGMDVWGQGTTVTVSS VL: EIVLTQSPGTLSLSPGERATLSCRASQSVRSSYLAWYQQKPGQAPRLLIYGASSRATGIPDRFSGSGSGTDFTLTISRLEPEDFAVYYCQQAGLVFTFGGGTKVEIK , state its recorded pKd.
Response given: 7.59

Challenge: Given Ab-33 (antibody, V domains shown) VH: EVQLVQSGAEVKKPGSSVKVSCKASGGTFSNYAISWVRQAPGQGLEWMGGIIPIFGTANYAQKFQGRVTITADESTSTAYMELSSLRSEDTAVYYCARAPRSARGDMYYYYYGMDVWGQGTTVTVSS VL: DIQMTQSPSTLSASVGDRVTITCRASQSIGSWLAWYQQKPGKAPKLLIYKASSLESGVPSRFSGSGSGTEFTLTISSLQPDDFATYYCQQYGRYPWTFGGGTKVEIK , state its recorded pKd.
Response given: 7.42

Challenge: Given Ab-31 (antibody, V domains shown) VH: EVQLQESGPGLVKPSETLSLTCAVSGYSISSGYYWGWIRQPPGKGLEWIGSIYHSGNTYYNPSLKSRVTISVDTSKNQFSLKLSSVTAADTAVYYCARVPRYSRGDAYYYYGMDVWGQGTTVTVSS VL: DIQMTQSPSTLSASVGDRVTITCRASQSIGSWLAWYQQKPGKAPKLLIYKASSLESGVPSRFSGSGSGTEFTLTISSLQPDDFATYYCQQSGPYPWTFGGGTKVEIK , state its recorded pKd.
Response given: 7.32

Challenge: Given Ab-30 (antibody, V domains shown) VH: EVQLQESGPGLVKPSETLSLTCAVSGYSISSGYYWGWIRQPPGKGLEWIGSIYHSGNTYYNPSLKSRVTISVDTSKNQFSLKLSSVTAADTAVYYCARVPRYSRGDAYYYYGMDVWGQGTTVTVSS VL: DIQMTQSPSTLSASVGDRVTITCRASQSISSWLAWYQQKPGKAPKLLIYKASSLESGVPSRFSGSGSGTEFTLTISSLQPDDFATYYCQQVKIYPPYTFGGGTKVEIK , state its recorded pKd.
Response given: 7.46

Challenge: Given Ab-29 (antibody, V domains shown) VH: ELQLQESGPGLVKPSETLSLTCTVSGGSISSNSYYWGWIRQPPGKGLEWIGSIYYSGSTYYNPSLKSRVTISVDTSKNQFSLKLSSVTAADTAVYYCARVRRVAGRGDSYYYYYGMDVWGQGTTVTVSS VL: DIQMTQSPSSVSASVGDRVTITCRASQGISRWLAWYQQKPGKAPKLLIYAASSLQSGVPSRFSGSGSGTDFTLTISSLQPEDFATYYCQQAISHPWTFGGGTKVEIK , state its recorded pKd.
Response given: 8.38
